- TARGET: recombinant eIF4E (Homo sapiens (Human), UniProt P06730)
- Sequence (P06730 whole entry): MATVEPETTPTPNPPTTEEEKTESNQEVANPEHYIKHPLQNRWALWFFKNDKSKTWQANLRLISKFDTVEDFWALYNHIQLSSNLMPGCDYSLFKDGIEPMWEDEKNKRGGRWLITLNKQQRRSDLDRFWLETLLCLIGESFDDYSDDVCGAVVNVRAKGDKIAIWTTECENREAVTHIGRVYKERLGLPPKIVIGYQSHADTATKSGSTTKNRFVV
- ASSAY PROTOCOL: Fluorescence polarization competition assay for eIF4E binding potency
- PROTOCOL CONDITIONS: inhibition of eIF4E/EDA-m7GDP-ATTO-550 binding by 50%; Table 4B calculated values; read-out: IC50
For each of the compounds below, state its IC50.
Field format: number, assumed nM, no unit text.

Query: Give the measured IC50 of Cc1nc2cnccc2c(=O)n1CCOc1ccc(Cl)cc1-c1cccc(P(=O)(O)O)c1 [150FC] .
Reply: 124

Query: Fill in: IC50 of Cc1nc2cc(C(F)(F)F)c(CC3CN(CC(F)F)C3)c(C#N)c2c(=O)n1CCOc1ccc(Cl)cc1-c1ccnc2c(C(=O)O)csc12 [compound 376] is ___
Reply: 12.7

Query: Requested read-out: IC50. Entry: Cc1cc(-c2cc(Cl)ccc2OCCn2c(C)nc3cc(CN(C)C)c(OC(F)F)c(C#N)c3c2=O)c2scc(C(=O)NS(C)(=O)=O)c2n1 [compound 451]
Reply: 36

Query: Which measured IC50 value corresponds to Cc1cc(-c2cc(Cl)ccc2OCCn2c(C)nc3cc(C(F)(F)F)c(N4CCC(F)(F)CC4)nc3c2=O)c2scc(C(=O)O)c2n1 [compound 802] ?
Reply: 35.9

Query: Could you share which IC50 value was measured for Cc1nc2ccc(S(=O)(=O)N(C)C)c(C#N)c2c(=O)n1CCOc1ccc(Cl)cc1-c1ccnc2c(C(=O)O)csc12 [compound 196] ?
Reply: 25.7

Query: What measured IC50 goes with Cc1ncc(C#N)c2c(=O)n(CCOc3ccc(Cl)cc3-c3ccc(Cl)c4c(C(=O)O)csc34)c(C)nc12 [compound 723] ?
Reply: 28.7

Query: Can you share its IC50? I mean this compound: N#Cc1cc(C(F)(F)F)cc2nc(Cl)n(CCOc3ccc(Cl)cc3-c3cccc(C(=O)O)c3)c(=O)c12 [compound 187]
Reply: 48.3

====

- TARGET: recombinant eIF4E (Homo sapiens (Human), UniProt P06730)
- ASSAY PROTOCOL: Fluorescence polarization competition assay for eIF4E binding potency
- PROTOCOL CONDITIONS: inhibition of eIF4E/EDA-m7GDP-ATTO-550 binding; calculated IC50 values, Table 4B; read-out: IC50
Field: IC50. Provide a value for each of the compounds that follow.
The response must be a number in nM with no trailing unit.

Query: Field: IC50 (recombinant eIF4E (Homo sapiens (Human), UniProt P06730)). Entry: O=C(O)c1cccc(-c2cc(Cl)ccc2OCCn2c(C(F)F)nc3cccc(Br)c3c2=O)c1 [compound 2009]
Reply: 2150

Query: Notebook: pull reported IC50 for recombinant eIF4E (Homo sapiens (Human), UniProt P06730), entry Cc1nc2cnc(N(C)C3CCN(C(C)C(F)F)CC3)c(C#N)c2c(=O)n1CCOc1ccc(Cl)cc1-c1ccnc2c(C(=O)O)csc12 (stereo not drawn) [compound 1662]
Reply: 22.1

Query: API: value(readout= IC50, system= recombinant eIF4E (Homo sapiens (Human), UniProt P06730), query= Cc1nc2cnc(N(C)C3CCN(CC4(C(F)(F)F)CC4)CC3)c(C#N)c2c(=O)n1CC#Cc1ccc(Cl)cc1-c1ccnc2c(C(=O)O)csc12 [compound 1587] )
Reply: 39.7

Query: Which measured IC50 belongs to Cc1nc2cnc(N(C)C3CCN([C@H]4C[C@H](OC(F)F)C4)CC3)c(C#N)c2c(=O)n1CC#Cc1ccc(Cl)cc1-c1ccnc2c(C(=O)NS(=O)(=O)c3ccncc3)csc12 [compound 1764] , tested on recombinant eIF4E (Homo sapiens (Human), UniProt P06730)?
Reply: 19

Query: Which IC50 is reported with recombinant eIF4E (Homo sapiens (Human), UniProt P06730) for this entry: Cc1nc(N2CCN(C)CC2)c(C#N)c2c(=O)n(CC#Cc3ccc(Cl)cc3-c3ccnc4c(C(=O)O)csc34)c(C)nc12 [compound 1273] ?
Reply: 7.48

Query: Observed IC50 on recombinant eIF4E (Homo sapiens (Human), UniProt P06730) for Cc1nc2cnc(N(C)C3CCN(C4COC4)CC3)c(C#N)c2c(=O)n1CC#Cc1ccc(Cl)cc1-c1ccnc2c(C(=O)NS(C)(=O)=O)csc12 [compound 1561] , please.
Reply: 13

====

- TARGET: recombinant eIF4E (Homo sapiens (Human), UniProt P06730)
- ASSAY PROTOCOL: Fluorescence polarization competition assay for eIF4E binding potency
- PROTOCOL CONDITIONS: inhibition of eIF4E/EDA-m7GDP-ATTO-550 binding by 50%; Table 4B calculated values; read-out: IC50
Kindly supply the reported IC50 values for the records listed here.
Write the answer as a number in nM, unit excluded.

Query: Kindly state the measured IC50 obtained for Cc1cc(-c2cc(Cl)ccc2OCCn2c(C)nc3cc(C(F)(F)F)cc(O)c3c2=O)c2scc(C(=O)O)c2n1 [351a] with recombinant eIF4E (Homo sapiens (Human), UniProt P06730).
Reply: 885

Query: Which IC50 is reported with recombinant eIF4E (Homo sapiens (Human), UniProt P06730) for this entry: Cc1cc(-c2cc(Cl)ccc2OCCn2c(C)nc3ccc(N4CCN(C)CC4)c(C#N)c3c2=O)c2sc(C)c(C(=O)O)c2n1 [compound 812] ?
Reply: 30

Query: What is its IC50 for recombinant eIF4E (Homo sapiens (Human), UniProt P06730)? Entry: Cc1cc(-c2c(C(F)(F)F)cc3nc(C)n(CCOc4ccc(Cl)cc4-c4cc(C)nc5c(C(=O)O)csc45)c(=O)c3c2C#N)ccn1 [compound 341]
Reply: 45

Query: Tell me reported IC50 for Cc1nc2ccc(S(=O)(=O)N3CCCC3)c(C#N)c2c(=O)n1CCOc1ccc(Cl)cc1-c1ccnc2c(C(=O)O)csc12 [compound 249] , tested with recombinant eIF4E (Homo sapiens (Human), UniProt P06730).
Reply: 19.8

Query: Reported IC50 for recombinant eIF4E (Homo sapiens (Human), UniProt P06730), given Cc1cc(-c2cc(Cl)ccc2OCCn2c(C)nc3cc(C(F)(F)F)c(-c4ccncc4F)c(C#N)c3c2=O)c2scc(C(=O)O)c2n1 [compound 344] ?
Reply: 32.1

Query: Requested read-out IC50, target or system recombinant eIF4E (Homo sapiens (Human), UniProt P06730), entry Cc1cc(-c2c(C(F)(F)F)cc3nc(C)n(CCOc4ccc(Cl)cc4-c4cc(C)nc5c(C(=O)O)csc45)c(=O)c3c2C#N)cc(CF)n1 [compound 934]
Reply: 13.6

====

Exercise: for every item that follows, state its recorded IC50.
- TARGET: recombinant eIF4E (Homo sapiens (Human))
- ASSAY PROTOCOL: Fluorescence polarization competition assay for eIF4E binding potency
- PROTOCOL CONDITIONS: inhibition of eIF4E/EDA-m7GDP-ATTO-550 binding by 50%; Table 4B calculated values; read-out: IC50
Show the value, then the unit it is measured in.

Query: GET /values?readout=IC50&item= Cc1cc(-c2cc(Cl)ccc2OCCn2c(C)nc3cc(Cl)c(N4CC(C)(C)C4)c(C#N)c3c2=O)c2scc(C(=O)O)c2n1 [compound 691]
Reply: 7.17 nM

Query: Return reported IC50; argument: Cc1cc(-c2cc(Cl)ccc2OCCn2c(C)nc3cc(C)c(CN4CCN(C)CC4)c(C#N)c3c2=O)c2scc(C(=O)O)c2n1 [compound 718]
Reply: 20.1 nM

Query: Request the reported IC50 associated with Cc1nc2cc(C(F)(F)F)c(CN3CCN(C)CC3)c(C#N)c2c(=O)n1CCOc1ccc(Cl)cc1-c1cc(CF)nc2c(C(=O)O)csc12 [compound 645]
Reply: 31.3 nM

Query: Look up IC50 for this compound: Cc1cc(-c2cc(Cl)ccc2OCCn2c(C)nc3cc4c(c(C#N)c3c2=O)C(N(C)C)CC4)c2scc(C(=O)O)c2n1 (stereo not drawn) [compound 612]
Reply: 43.8 nM

Query: Sample CC(=O)c1nc2c(=O)n(CCOc3ccc(Cl)cc3-c3cc(C)nc4c(C(=O)O)csc34)c(C)nc2cc1C(F)(F)F [compound 780] — what was its IC50?
Reply: 9.6 nM

Query: IC50 for Cc1nc2cc(C(F)(F)F)cc(C#N)c2c(=O)n1CCOc1ccc(Cl)cc1-c1cnnc2c(C(=O)O)csc12 [compound 314] ?
Reply: 42.8 nM

====

- TARGET: recombinant eIF4E (Homo sapiens (Human), UniProt P06730)
- ASSAY PROTOCOL: Fluorescence polarization competition assay for eIF4E binding potency
- PROTOCOL CONDITIONS: fluorescence polarization competition, 75 nM recombinant eIF4E, 20 nM EDA-m7GDP-ATTO-550; IC50 class; read-out: elF4E FP
pIC50: −log10 of the molar value.
MEASURED QUANTITY: pIC50

Query: Return reported pIC50; argument: `Cc1cc(-c2cc(Cl)ccc2OCCn2c(C)nc3cc(C(F)(F)F)c(CN(C)C)c(C#N)c3c2=O)c2sc(C)c(C(=O)O)c2n1`
Reply: > 7.30

Query: Item `C=Cc1ncc2nc(C)n(CCOc3ccc(Cl)cc3-c3cc(C)nc4c(C(=O)O)csc34)c(=O)c2c1C#N` has what recorded pIC50?
Reply: > 7.30

Query: State the recorded pIC50 for this entry: `Cc1nc2cnc(N3CCN(CCCC(F)(F)F)CC3)c(C#N)c2c(=O)n1CCOc1ccc(Cl)cc1-c1ccnc2c(C(=O)O)csc12`
Reply: > 7.30
